Every entry's value here was drawn from patent US20230134571A1.

Target: HIV Env, isolate 231965.c01 (HIV)
Assay: cell-based or functional assay
Overview of reported IC80 (µg/ml) with constrains across a group of binders:

binder	units-text	IC80 (µg/ml) with constrains
ePGDM13 (antibody, V domains shown) VH: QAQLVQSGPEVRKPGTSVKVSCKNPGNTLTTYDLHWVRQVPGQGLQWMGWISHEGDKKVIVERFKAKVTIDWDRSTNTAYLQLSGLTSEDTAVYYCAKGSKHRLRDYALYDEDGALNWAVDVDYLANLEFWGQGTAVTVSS VL: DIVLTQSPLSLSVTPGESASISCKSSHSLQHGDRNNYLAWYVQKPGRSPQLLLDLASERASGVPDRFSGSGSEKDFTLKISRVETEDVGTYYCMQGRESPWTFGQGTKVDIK	µg/mL	0.058
ePGDM9 (antibody, V domains shown) VH: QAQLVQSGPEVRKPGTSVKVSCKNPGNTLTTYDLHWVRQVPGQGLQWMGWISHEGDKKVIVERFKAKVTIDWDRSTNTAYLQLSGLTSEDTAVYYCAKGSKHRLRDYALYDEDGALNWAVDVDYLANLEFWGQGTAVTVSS VL: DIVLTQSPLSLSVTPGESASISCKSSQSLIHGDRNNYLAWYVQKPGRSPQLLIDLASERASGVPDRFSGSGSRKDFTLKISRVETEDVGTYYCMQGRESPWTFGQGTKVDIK	µg/mL	0.037
ePGDM5 (antibody, V domains shown) VH: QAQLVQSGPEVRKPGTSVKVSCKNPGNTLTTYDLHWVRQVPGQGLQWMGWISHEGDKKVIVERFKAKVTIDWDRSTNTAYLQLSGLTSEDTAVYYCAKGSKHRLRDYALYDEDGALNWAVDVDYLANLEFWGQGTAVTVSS VL: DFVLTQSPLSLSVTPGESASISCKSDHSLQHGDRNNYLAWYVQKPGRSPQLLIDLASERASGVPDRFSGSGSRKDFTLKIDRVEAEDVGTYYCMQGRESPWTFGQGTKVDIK	µg/mL	0.035
PGDM1400 (antibody, V domains shown) VH: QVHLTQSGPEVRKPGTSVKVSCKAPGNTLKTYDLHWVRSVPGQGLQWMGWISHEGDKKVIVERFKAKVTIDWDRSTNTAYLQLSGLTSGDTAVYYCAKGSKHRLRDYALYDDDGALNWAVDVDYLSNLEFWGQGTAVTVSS VL: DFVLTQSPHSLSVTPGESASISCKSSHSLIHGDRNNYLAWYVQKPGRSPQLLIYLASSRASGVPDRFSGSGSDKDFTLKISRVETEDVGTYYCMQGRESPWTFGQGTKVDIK	µg/mL	0.242
